B1: TRIM55 (parent)
chain: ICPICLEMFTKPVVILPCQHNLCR

Variants of: B1
assayRemarks: protein stability index of a GFP-peptide fusion (GPS, HEK-293T) (PSI 1-6); higher = more stable;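 further: lentivirally expressed fusions sorted by FACS into six bins by GFP to DsRed ratio, PSI derived from sequencing read proportions per bin multiplied by bin number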
conditionNotes: c terminus: a fixed tail appended
attributeMeasured: protein stability index
Answer field: number only, no words.

Some variants with recorded protein stability index:
>>> measurement("ICPICLEMFTKPVVIMPCQHNLCR [L16M]")
2.38
>>> measurement("ICPICLEMFTKPVVILPCHHNLCR [Q19H]")
2.09
>>> measurement("ICPACLEMFTKPVVILPCQHNLCR [I4A]")
2.07
>>> measurement("ICPICLAMFTKPVVILPCQHNLCR [E7A]")
2.3
>>> measurement("ICPICSEMFTKPVVILPCQHNLCR [L6S]")
2.52

Switching to the query record.
variant ICPICLEMFTKPVVILPCQHNLCI [R24I] , protein stability index observed: 2.24
